Value source: PubChem BioAssay (NCATS)

# System: GB4
# test: qHTS profiling for inhibitors of Plasmodium falciparum proliferation (AID 504749); also: nearly all actives have a fitted effect of over 60% in size; also: potency is read from the fitted curve at half-maximal effect
# stated_conditions: P. falciparum in erythrocytes, SYBR Green DNA, 72 h; series mostly up to 28.7 µM
Results filed as inconclusive are left out. The source made the active and inactive calls. Calls follow the shape of the dose curve; as a rule, active = well fitted inhibition curve with a large enough effect; inconclusive = small, poorly fitted or top-dose-only effect; inactive = flat fitted curve, though single readings scatter.
metric: Potency

Here's what some known entries look like.
compound	system_under_test	metric	reported_value
Cc1ccc(S(=O)(=O)NC(=O)NC(C)Cc2ccccc2)cc1 (configuration not stated)	GB4	Potency	inactive
CCCC[C@H]1C(=O)N(c2ccccc2)N(c2ccc(O)cc2)C1=O	GB4	Potency	inactive
COC(c1ccccc1)(c1ccccc1)C(Oc1nc(C)cc(C)n1)C(=O)O (configuration not stated)	GB4	Potency	inactive
OCCN1CC(O)C(O)C(O)C1CO (configuration not stated)	GB4	Potency	inactive
CO[C@H]1/C=C/O[C@@]2(C)Oc3c(C)c(O)c4c(O)c(c5c(c4c3C2=O)NC2(CCN(CC(C)C)CC2)N=5)=NC(=O)/C(C)=C\C=C\[C@H](C)[C@H](O)[C@@H](C)[C@@H](O)[C@@H](C)[C@H](OC(C)=O)[C@@H]1C	GB4	Potency	12 µM (active)
CC1OC(OCC2OC(Oc3c(-c4ccc(OCCO)c(OCCO)c4)oc4cc(OCCO)cc(O)c4c3=O)C(O)C(O)C2O)[C@@H](O)C(O)C1O (some centres not stated)	GB4	Potency	inactive
OCC1O[C@@H](O[C@@H]2C(CO)OC(O)C(O)C2O)C(O)C(O)C1O (some centres not stated)	GB4	Potency	inactive
O=C(O)Cc1sc(-c2ccc(Cl)cc2)nc1-c1ccccc1	GB4	Potency	inactive

Quick batch: Potency for everything below.
1. CCCCCOC(=O)Nc1nc(=O)n(C2O[C@H](C)[C@@H](O)[C@@H]2O)cc1F (some centres not stated)
2. CO[C@H]1C[C@@H]2CC[C@@H](C)[C@@](O)(O2)C(=O)C(=O)N2CCCC[C@H]2C(=O)O[C@H]([C@H](C)C[C@@H]2CC[C@@H](O)[C@H](OC)C2)CC(=O)[C@H](C)/C=C(\C)[C@@H](O)[C@@H](OC)C(=O)[C@H](C)C[C@H](C)/C=C/C=C/C=C/1C
3. Cc1cn([C@H]2CC(F)[C@@H](CO)O2)c(=O)[nH]c1=O (some centres not stated)
4. O=C(OC[C@@H]1O[C@@](O)(COC(=O)c2cccnc2)[C@H](OC(=O)c2cccnc2)[C@H]1OC(=O)c1cccnc1)c1cccnc1

inactive
1.69 µM (active)
inactive
inactive
